measurement protocol: NCI Yeast Anticancer Drug Screen. Data for the rad50 strain (AID 155);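 note: 0% = growth of vehicle-only cultures of the same strain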
study conditions: S. cerevisiae rad50 strain growth inhibition; at 50.0 µM (retest, dose inferred, filed as 5.0); active compounds read high
The panel holds about 79,000 compounds, 15% with a hit somewhere; the sample as a whole holds those more often.
Decide using growth inhibition: a value greater than or equal to 20% is 1, a smaller one is 0.

Before answering, review these 5 worked examples.
{"columns": ["compound", "category label"],
 "data": [
  ["COc1nc(N)c(N=O)c(OCc2ccccc2)n1", 1],
  ["CN/N=C(\\C)C(CN1CCCCC1)C(C1=C(O)c2ccccc2OC1)c1ccccc1 (centres undefined)", 1],
  ["S=C(NCCc1ccccc1)N/N=C/c1ccc(Cl)cc1", 1],
  ["Cc1cccc(C)c1O", 1],
  ["CC(=O)c1cc(I)c(O)c2ncccc12", 1]
]}

Prompt line: Evaluate `Cc1ccc([Si](O)(c2ccc(C)cc2)c2ccc(C)cc2)cc1` : growth inhibition at minimum 20%?
Response line: 1

Prompt line: Evaluate `CCCCCCCCCCCCNCC#N` : growth inhibition at minimum 20%?
Response line: 0

Prompt line: Evaluate `Cc1ccc(C(C)(C)C)c(O)c1O` : growth inhibition at minimum 20%?
Response line: 1

Prompt line: Evaluate O=C(O)c1c2c(cc3c1CC1(Cc4ccccc4C1=O)C3)CCC2 (centres undefined) : growth inhibition at minimum 20%?
Response line: 0

Prompt line: Evaluate CCCC(C)C/C(C)=C\C(C)(C)C1CC(=O)N(CC)C1=O (centres undefined) : growth inhibition at minimum 20%?
Response line: 1

Prompt line: Evaluate `c1ccc2c3ccn4ccc5c6ccccc6[nH]c5c4c-3nc2c1` : growth inhibition at minimum 20%?
Response line: 1

Prompt line: Evaluate `COc1ccc(/C=C/C(C(=O)O)C(=O)O)cc1` : growth inhibition at minimum 20%?
Response line: 1

Prompt line: Evaluate `CN(C)C=Nc1c2ccccc2nc2ccccc12` : growth inhibition at minimum 20%?
Response line: 1

Prompt line: Evaluate `O=C(c1cc2c(C(F)(F)F)onc2c2ccccc12)C(F)(F)F` : growth inhibition at minimum 20%?
Response line: 0

Prompt line: Evaluate `CCN(CC)C(=S)N=Nc1c(O)[nH]c2ccccc12` : growth inhibition at minimum 20%?
Response line: 1

---

measurement protocol: NCI Yeast Anticancer Drug Screen. Data for the mlh1 rad18 strain (AID 175)
study conditions: S. cerevisiae mlh1 rad18 strain growth inhibition; at 50.0 µM
This is part of a sample that, as a whole, favours compounds with a hit. Of some 79,000 tested, about 15% had one in any assay. Activity calls are given as the source filed them. Cut-off read from the data, not from the text of the source: active = growth inhibition above about 70%; inactive = the rest.
One label from this list, please: y = active, n = inactive

Before answering, review these 5 worked examples.
{"columns": ["compound", "category label"],
 "data": [
  ["CC1=C/C(=C\\C=C2/N(C)c3c(C)cccc3C2(C)C)C(=O)c2ncccc21", "n"],
  ["CCN(c1ccc(C=O)cc1)c1ccc([N+](=O)[O-])cc1[N+](=O)[O-]", "n"],
  ["c1ccc(COc2ccc(C[P+](c3ccccc3)(c3ccccc3)c3ccccc3)cc2)cc1", "y"],
  ["CC1=C(C)C(=O)C(C(C)(C)CC(=O)n2cc(F)c(=O)[nH]c2=O)=C(C)C1=O", "y"],
  ["C=C1CC(C)(C)C(c2ccccc2)OC1=O (stereo unspecified)", "y"]
]}

Prompt line: Check the results log: what was the call for `Cc1nc(-c2ccc(N=Cc3ccc(N(CCOS(C)(=O)=O)CCOS(C)(=O)=O)cc3Cl)cc2)c(C)s1` ?
Response line: y

---

For each of the compounds below, state its growth inhibition.
measurement protocol: NCI Yeast Anticancer Drug Screen. Data for the mlh1 rad18 strain (AID 175)
study conditions: S. cerevisiae mlh1 rad18 strain growth inhibition; at 50.0 µM; active compounds read high
The panel holds about 79,000 compounds, 15% with a hit somewhere; the sample as a whole holds those more often.
Answers are plain numbers, in %.

{"columns": ["chemical string", "result unit", "value measured"],
 "data": [
  ["COc1nc(N)c(N=O)c(OCc2ccccc2)n1", "%", 89.3],
  ["CCN(CC)c1ccc(N=Nc2ccc(-c3nc4ccc[n+](C)c4s3)cc2)cc1", "%", 88.8]
]}

Prompt line: Recorded growth inhibition of `C/C(=N\NC(=S)N1CCN(c2cnccn2)CC1)c1ccccn1` , please.
Response line: 91.7

---

measurement protocol: NCI Yeast Anticancer Drug Screen. Data for the mlh1 rad18 strain (AID 175)
study conditions: S. cerevisiae mlh1 rad18 strain growth inhibition; at 50.0 µM (retest, dose inferred, filed as 5.0); active compounds read high
The panel holds about 79,000 compounds, 15% with a hit somewhere; the sample as a whole holds those more often.
result type: growth inhibition (%)
One number for each entry, in %.

{"columns": ["compound", "growth inhibition [%]"],
 "data": [
  ["CN(C)c1ccc(SC(=S)NCc2ccccc2)cc1", 90],
  ["O=C(Oc1ccccc1)C1CCCCC1C(=O)Oc1ccccc1 (configuration not stated)", -6],
  ["Cc1ccc(C(=O)OCCN2CCOCC2)c([N+](=O)[O-])c1OCc1ccccc1", 58],
  ["COc1cccc2c1C(=O)c1c(O)c3c(c(O)c1C2=O)C[C@@](O)(/C(C)=N/NS(C)(=O)=O)C[C@@H]3OC1CC(N)C(O)C(C)O1 (some centres not stated)", 89],
  ["O=P1(NCC2CCCO2)OCC2(CO1)COP(=O)(NCC1CCCO1)OC2 (configuration not stated)", 96]
]}

Hi, could you look up growth inhibition for each item in my list?
1. C=C1C(=O)C23OC2C1CCC(=O)C1(C)CC[C@H](OC(C)=O)C(C)(C)[C@H]1CC3O (some centres not stated)
2. CCCCNC(=S)N/N=C/c1cccc(C)n1
3. CN(C)CCC(/C=C/c1ccccc1)=N\Nc1ccc(Cl)cc1
4. CC1=CC(C)(C)Nc2cc(N)ccc21
5. CCCN(CCC)c1ccc(Cc2ccc(N(CCC)CCC)cc2N)c(N)c1
6. CC(NNC(=S)N1CCCCCC1)c1cccnn1 (configuration not stated)

Response line:
1. 38
2. 99
3. 99
4. -136
5. 95
6. 99

---

measurement protocol: NCI Yeast Anticancer Drug Screen. Data for the rad50 strain (AID 155);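 note: 0% = growth of vehicle-only cultures of the same strain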
study conditions: S. cerevisiae rad50 strain growth inhibition; at 50.0 µM; active compounds read high
Compounds without any hit were thinned out: in the full panel of roughly 79,000, 15% have a hit.
result type: growth inhibition (%)
Give bare numbers, in %.

Solved entries:
{"columns": ["molecule", "result type", "value measured"],
 "data": [
  ["CN(C)CC(CN(C)C)C(=O)c1ccc2c(c1)OCO2", "growth inhibition", 84.7],
  ["CC(C)c1ccc(/C=C(\\NC(=O)c2ccccc2)c2nc3ccccc3[nH]2)cc1", "growth inhibition", 71.2],
  ["C/C(=N/NC(=S)Nc1cccc(Cl)c1)c1ccccn1", "growth inhibition", 79],
  ["COC(=O)C1(OC(=O)CCC(=O)O)C(=O)NC2=C1C(=O)c1ccccc1C2=O (stereo unspecified)", "growth inhibition", 75.8],
  ["CC(C)C1(C)C(C#N)(C#N)C1(C#N)C#N", "growth inhibition", 79.8]
]}

Hi, could you look up growth inhibition for each item in my list?
1. CS/C(=N\C(=S)N(C)C)N(c1ccccc1)c1nc(=[N+](C)C)ss1
2. CCOC(=O)C(C(=O)OCC)c1ccc([N+](=O)[O-])o1
3. CC(=O)SCC(=O)Nc1ccc(Cl)cc1
4. CCCC1=C(c2ccccc2)C(O)(c2ccccc2)C(CCC)C1=O (stereo unspecified)
5. CC(C)Cn1cnc2c(SCc3ccccc3[N+](=O)[O-])nc(N)nc21

Response line:
98.5
86
88
97.8
90

---

measurement protocol: NCI Yeast Anticancer Drug Screen. Data for the rad50 strain (AID 155);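 note: 0% = growth of vehicle-only cultures of the same strain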
study conditions: S. cerevisiae rad50 strain growth inhibition; at 5.0 µM (retest, dose inferred, filed as 0.5)
This is part of a sample that, as a whole, favours compounds with a hit. Of some 79,000 tested, about 15% had one in any assay. Activity calls are given as the source filed them. Cut-off read from the data, not from the text of the source: active = growth inhibition above about 70%; inactive = the rest.
One label from this list, please: active, inactive

Before answering, review these 2 worked examples.
{"columns": ["compound", "category label"],
 "data": [
  ["OC(CCN1CCOCC1)(c1cccc(Cl)c1)C1CCCCC1 (centres undefined)", "inactive"],
  ["Clc1ccc(Cc2nc3ccccc3s2)c(Cl)c1", "inactive"]
]}

Consider the additional compound presented here.
Prompt line: Check the results log: what was the call for `COc1ccc(/C=C/C(C)=N/NC(=S)NCC(C)C)cc1` ?
Response line: inactive

---

measurement protocol: NCI Yeast Anticancer Drug Screen. Data for the sgs1 mgt1 strain (AID 161);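 note: 0% = growth of cultures given vehicle only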
study conditions: S. cerevisiae sgs1 mgt1 strain, at 50.0 µM (retest, dose inferred, filed as 5.0), active compounds read high
Description: Growth inhibition of yeast strains with defined genetic alterations is measured as a screen for potential anti-cancer activity. Selected strains with alterations in DNA damage repair or cell cycle control were exposed to compounds and growth inhibition was measured relative to vehicle treated controls. The strain used in this assay is sgs1 mgt1
About 79,000 compounds went through this panel and 15% of them were active in at least one assay; those are over-represented in the sample as a whole.
Decide using growth inhibition: a value greater than or equal to 30% is MET, a smaller one is NOT MET.

Before answering, review these 3 worked examples.
{"columns": ["compound", "category label"],
 "data": [
  ["N#Cc1c(-c2ccc(Cl)cc2)c(C#N)c(=O)n(NS(=O)(=O)c2ccccc2)c1S", "MET"],
  ["CCOc1ccc(Nc2nc(C)c(C(=O)/C=C/c3ccc(Cl)cc3Cl)s2)cc1", "NOT MET"],
  ["COC1=CC23C=CC1[C@@H](c1ccccc1)C2=C(C)C(=O)N3C(=O)NC1CCCCC1 (some centres undefined)", "NOT MET"]
]}

Prompt line: Evaluate O=C1CCC(C(c2ccccc2)(c2ccccc2)c2ccccc2)CC1=O (centres undefined) : growth inhibition at minimum 30%?
Response line: MET

Prompt line: Evaluate `CCCCCCC/C=C\C(=O)O` : growth inhibition at minimum 30%?
Response line: MET

Prompt line: Evaluate CC12CCC3c4cc(O)ccc4CCC3C1CCC2O (centres undefined) : growth inhibition at minimum 30%?
Response line: MET

Prompt line: Evaluate `COc1ccc(/C=C/C(C)=N/NC(=S)NCC(C)C)cc1` : growth inhibition at minimum 30%?
Response line: MET

Prompt line: Evaluate COC(=O)C1(C)CCCC2(C)C3CC(=O)C(C(C)C)=CC3(O)CCC12 (centres undefined) : growth inhibition at minimum 30%?
Response line: NOT MET

Prompt line: Evaluate `CCC(C)(C)c1cc(Br)c(NS(=O)(=O)c2ccc(NC(C)=O)cc2)c(Br)c1` : growth inhibition at minimum 30%?
Response line: MET

Prompt line: Evaluate `O=C(c1cccs1)N(C(=S)N1CCN(c2ccccn2)CC1)C1CCCCC1` : growth inhibition at minimum 30%?
Response line: MET

Prompt line: Evaluate `CN(C)CCCNc1c2ccccc2nc2ccc([N+](=O)[O-])cc12` : growth inhibition at minimum 30%?
Response line: MET

Prompt line: Evaluate `O=C(OCc1ccccc1)N(CCCCN(CCCNCc1ccccc1)C(=O)OCc1ccccc1)CCCNCc1ccccc1` : growth inhibition at minimum 30%?
Response line: MET

Prompt line: Evaluate `Nc1ccc2c(c1)[nH]c(=O)c1c(Cl)cccc12` : growth inhibition at minimum 30%?
Response line: NOT MET

Prompt line: Evaluate `NC(=S)N/N=C/c1ccc([N+](=O)[O-])o1` : growth inhibition at minimum 30%?
Response line: NOT MET

Prompt line: Evaluate `Oc1ccc(O)c2c(O)c3ccccc3c(O)c12` : growth inhibition at minimum 30%?
Response line: MET

Prompt line: Evaluate `C/C(=N/NC(=S)N1CCCCC1)c1cccc(/C(C)=N\NC(=S)N2CCCCC2)n1` : growth inhibition at minimum 30%?
Response line: MET
